Experiment: Mouse brain uptake assay, 0-24 h, 4 time points
Assay type: in vivo
Details: male, CD1, Mouse brain, 3 mg/kg IV, 4 time points, read-out: AUClast (b)
Consider the following compounds and their measured AUC(0-t) readings.
All answers are understood in ng·h/mL, so give the number only.

Reference set, count: 5
| Compound | AUC(0-t) [ng·h/mL] |
| --- | --- |
| CN1CCN(c2cccc3nc([C@H]4CCC[C@@H](c5ncccc5Cl)N4C)c(Cl)n23)CC1 | 26900 |
| CCOCc1c([C@H]2CCC[C@@H](c3ncccc3Cl)N2C)nc2cccc(N3CCN(C)CC3)n12 | 32300 |
| Cc1cccnc1[C@@H]1CCC[C@H](c2nc3cccc(N4CCN(C)CC4)n3c2Cl)N1 | 34800 |
| Cc1c([C@@H]2CCC[C@H](c3ncccc3Cl)N2)nc2cccc(N3CCN(C)CC3)n12 (stereo in doubt) | 13700 |
| Cc1cccnc1[C@@H]1CCC[C@H](c2cn3c(N4CCN(C)CC4)cccc3n2)N1 | 1360 |

Okay, next one:
Given the entry Cc1cccnc1[C@@H]1CCC[C@H](c2cn3c(-c4cccnc4)cccc3n2)N1C , report its measured AUC(0-t).
3170

###

Experiment: in vitro
Settings: human, Caco-2, pH 7.4
Consider the following compounds and their measured Papp A→B at 90 min, 10 μM readings.

| Compound | Result |
| --- | --- |
| CN(C)C1CCN(c2cccc3nc([C@H]4CCC[C@@H](c5ncccc5Cl)N4C)c(CO)n23)CC1 | 0.1 to 10 ×10⁻⁶ cm/s |
| Cc1cccnc1[C@H]1CCC[C@@H](c2nc3cccc(N4CCN(C)CC4)n3c2F)N1C (stereo in doubt) | 10 to 30 ×10⁻⁶ cm/s |
| CCOCc1c([C@H]2CCC[C@@H](c3ncccc3C)N2C)nc2cccc(N3CCN(C4CC4)CC3)n12 | 10 to 30 ×10⁻⁶ cm/s |

Next item in the queue.
Endpoint output: Papp A→B at 90 min, 10 μM of Cc1cccnc1[C@@H]1CCC[C@H](c2cn3c(N4CCN(C)CC4)cccc3n2)N1CCCO . Value?
0.1 to 10 ×10⁻⁶ cm/s

###

Assay: Fraction of drug unbound to brain proteins, mouse
Format: in vitro ADME
Details: Mouse brain proteins (Table 9); read-out: Fu (b) %
Reported Metric: fraction unbound
Quick one: just the number, no unit, thanks!

| Molecule | fraction unbound |
| --- | --- |
| Cc1cccnc1[C@@H]1CCC[C@H](c2cn3c(N4CCN(C)CC4)cccc3n2)N1 | 0.071 |
| Cc1cccnc1[C@@H]1CCC[C@H](c2nc3cccc(N4CCN(C)CC4)n3c2Cl)N1 | 0.006 |
| CN1CCN(c2cccc3nc([C@H]4CCC[C@@H](c5ncccc5Cl)N4)cn23)CC1 (racemic) | 0.026 |
| Cc1cccnc1[C@@H]1CCC[C@H](c2nc3cccc(N4CCN(C(C)C)CC4)n3c2Br)N1C | 0.001 |
| Cc1cccnc1[C@@H]1CCC[C@H](c2nc3cccc(N4CCN(C)CC4)n3c2Cl)N1C | 0.002 |

I have this molecule here, Cc1cccnc1[C@@H]1CCC[C@H](c2nc3cccc(N4CCC(N(C)C)CC4)n3c2Cl)N1C , and I need its recorded fraction unbound.
0.003

Any idea what fraction unbound was measured for CCN1CCN(c2cccc3nc([C@H]4CCC[C@@H](c5ncccc5C)N4C)c(Br)n23)CC1 ?
0.001

###

Assay: Fraction of drug unbound to plasma proteins, rat
Format: in vitro ADME
Conditions: read-out: Fu (p)
Reported values of fraction unbound for individual entries

| Compound | fraction unbound |
| --- | --- |
| CN1CCN(c2cccc3nc([C@@H]4CCC[C@H](c5ncccc5Cl)N4)cn23)CC1 (single isomer, unassigned) [Compound I-189] | 0.248 |
| Cc1cccnc1[C@@H]1CCC[C@H](c2nc3cccc(N4CCN(C)CC4)n3c2Cl)N1 [Compound I-146] | 0.07 |
| CN1CCN(c2cccc3nc([C@H]4CCC[C@@H](c5ncccc5Cl)N4)cn23)CC1 (racemic) [Compound I-149] | 0.2 |

State the recorded fraction unbound for this entry: CN1CCN(c2cccc3nc([C@H]4CCC[C@@H](c5ncccc5Cl)N4)cn23)CC1 (single isomer, unassigned) [Compound I-188]
0.308

###

Experiment: MTD and pharmacokinetics and brain penetration after PO administration
Type: in vivo, Male C57BL/6 Mice
Settings: male, C57BL/6, brain and plasma; Mouse, single administration, D1-50 mg/kg PO
Reported Metric: Kp
// return a plain number; no unit text

Could you share which Kp value was measured for CN1CCN(c2cccc3nc([C@H]4CCC[C@@H](c5ncccc5Cl)N4)cn23)CC1 (single isomer, unassigned) [Compound I-188] ?
2.49

###

A collection of molecules and their measured IC50
Target: CXCR-4 transfected U87 cell line (U87.CXCR4) (Homo sapiens (Human))
Sequence (P61073 whole entry): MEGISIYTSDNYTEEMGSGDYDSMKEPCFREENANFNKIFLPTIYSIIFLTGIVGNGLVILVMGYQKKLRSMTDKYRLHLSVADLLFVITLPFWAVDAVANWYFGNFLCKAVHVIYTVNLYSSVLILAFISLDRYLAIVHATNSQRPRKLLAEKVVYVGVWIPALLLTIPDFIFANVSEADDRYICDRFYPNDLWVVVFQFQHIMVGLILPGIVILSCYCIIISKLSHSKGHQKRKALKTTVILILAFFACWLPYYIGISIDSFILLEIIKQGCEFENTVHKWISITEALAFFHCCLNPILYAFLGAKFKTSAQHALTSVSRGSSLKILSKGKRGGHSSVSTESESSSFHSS
Assay: Intracellular CXCL-12-induced calcium mobilization assay (FLIPR)
Conditions: U87.CXCR4 cells, CXCL-12 25-50 ng/mL; read-out: IC50 CXCL-12 Ca2+ flux U87.CXCR4+

Name the reported IC50 value associated with the molecule Cc1c([C@@H]2CCC[C@H](c3ncccc3Cl)N2)nc2cccc(N3CCN(C)CC3)n12 (stereo in doubt)
0.01 to 100 nM

###

Test: in vitro
Conditions: human, Caco-2, pH 7.4
Reported Metric: Papp B→A at 90 min, 10 μM

Worked examples follow.
| Compound | Reported Metric | Result |
| --- | --- | --- |
| Cc1cccnc1[C@@H]1CCC[C@H](c2cn3ccccc3n2)N1CCc1cnccn1 [Compound I-9] | Papp B→A at 90 min, 10 μM | 10 to 30 ×10⁻⁶ cm/s |
| CN1CCN(c2cccc3nc([C@H]4CCC[C@@H](c5ncccc5Cl)N4)cn23)CC1 (racemic) [Compound I-149] | Papp B→A at 90 min, 10 μM | 10 to 30 ×10⁻⁶ cm/s |
| CNCCCc1c([C@@H]2CCC[C@H](c3ncccc3C)N2C)nc2ccccn12 (stereo in doubt) [Compound I-27] | Papp B→A at 90 min, 10 μM | 0.1 to 10 ×10⁻⁶ cm/s |

# input for lookup
// query Papp B→A at 90 min, 10 μM value for entry Cc1cccnc1[C@@H]1CC(=O)C[C@H](c2cn3c(N4CCN(C)CC4)cccc3n2)N1C [Compound I-3]
0.1 to 10 ×10⁻⁶ cm/s

###

Experiment: Mouse brain uptake assay (pharmacokinetics and brain penetration after IV administration), 0-1 h, 3 time points
Format: in vivo, Male CD1 Mice
Conditions: male, CD1, plasma; Mouse, 3 mg/kg IV, 0-1 h, 3 time points; read-out: t½ (converted)
Reported Metric: half-life (min)
Respond with the bare value in min.

Below: 5 compounds and their reported half-life.
| Compound | Result Number |
| --- | --- |
| Cc1cccnc1[C@@H]1CCC[C@H](c2nc3cccc(N4CCN(C)CC4)n3c2Cl)N1C [Compound I-18] | 20.6 |
| Cc1cccnc1[C@@H]1CCC[C@H](c2nc3cccc(N4CCN(C(C)C)CC4)n3c2Br)N1C [Compound I-20] | 22.4 |
| Cc1cccnc1[C@@H]1CCC[C@H](c2cn3c(-c4cccnc4)cccc3n2)N1C [Compound I-6] | 216 |
| Cc1cccnc1[C@@H]1CCC[C@H](c2nc3cccc(N4CCN(C)CC4)n3c2Cl)N1 [Compound I-146] | 361 |
| CN1CCN(c2cccc3nc([C@H]4CCC[C@@H](c5ncccc5Cl)N4)cn23)CC1 (racemic) [Compound I-149] | 22 |

// query half-life value for entry Cc1cccnc1[C@@H]1CCC[C@H](c2nc3cccc(N4CCC(N(C)C)CC4)n3c2Cl)N1C [Compound I-114]
43.2

# get_value(readout='half-life', item= CCN1CCN(c2cccc3nc([C@H]4CCC[C@@H](c5ncccc5C)N4C)c(Br)n23)CC1 [Compound I-19] )
21.8

Given Cc1cccnc1[C@@H]1CCC[C@H](c2cn3c(N4CCN(C)CC4)cccc3n2)N1 [Compound I-187] , state its recorded half-life.
21.2

###

Assay: in vitro
Details: human, Caco-2, pH 7.4
Reported Metric: Papp A→B at 90 min, 10 μM

Example molecules with recorded Papp A→B at 90 min, 10 μM:
| Smiles Code | Result |
| --- | --- |
| Cc1cccnc1[C@@H]1CCC[C@H](c2nc3cccc(N4CCN(C)CC4)n3c2COC(C)C)N1C | 0.1 to 10 ×10⁻⁶ cm/s |
| CN1[C@@H](c2cn3c(N4CCNC5(CC5)C4)cccc3n2)CCC[C@H]1c1ncccc1Cl | 10 to 30 ×10⁻⁶ cm/s |
| Cc1cccnc1[C@@H]1CCC[C@H](c2nc3c(N)ccc(N4CCN(C)CC4)n3c2Cl)N1C | 10 to 30 ×10⁻⁶ cm/s |
| Cc1cccnc1[C@H]1CCC[C@@H](c2nc3ccccn3c2-c2ccncc2)N1 | 10 to 30 ×10⁻⁶ cm/s |
| Cc1cccnc1[C@@H]1CCC[C@H](c2nc3cccc(N4CCN(C)CC4)n3c2Cl)N1C | 0.1 to 10 ×10⁻⁶ cm/s |

Quick one: Papp A→B at 90 min, 10 μM of Cc1cccnc1[C@@H]1CCC[C@H](c2cn3c(N4CCN(C)CC4)cccc3n2)N1CCO ?
0.1 to 10 ×10⁻⁶ cm/s

Consider the molecule Cc1cccnc1[C@@H]1CCC[C@H](c2cn3c(N4CC5CCC(C4)N5C)cccc3n2)N1C and give its measured Papp A→B at 90 min, 10 μM.
0.1 to 10 ×10⁻⁶ cm/s

# Papp A→B at 90 min, 10 μM lookup, item Cc1cccnc1[C@@H]1CCC[C@H](c2nc3cccc(N4CCN(C(C)C)CC4)n3c2Br)N1C
0.1 to 10 ×10⁻⁶ cm/s
